assay: Retardation factor of the compound using EtOAc-pyridine-AcOH-H2O at ratio of 5:5:1:3 as solvent system by thin layer chromatography; format: physicochemical
Property Name: Rf

Requested field: Rf. Item: CC(C)C[C@H](NC(=O)[C@@H]1CCC(=O)N1)C(=O)N[C@@H](CC(C)C)C(=O)N[C@@H](CO)C(=O)N[C@@H](Cc1ccc(O)cc1)C(=O)N[C@H](C)C(=O)N[C@@H](CC(C)C)C(=O)N[C@@H](CCCNC(=N)N)C(=O)N1CCC[C@H]1C(=O)NCC(N)=O
0.8

Sample CC(C)C[C@H](NC(=O)[C@@H](C)NC(=O)[C@H](Cc1ccc(O)cc1)NC(=O)[C@H](CO)NC(=O)[C@@H](NC(=O)[C@@H](NC(=O)[C@@H]1CCC(=O)N1)C(C)C)C(C)C)C(=O)N[C@@H](CCCNC(=N)N)C(=O)N1CCC[C@H]1C(=O)NCC(N)=O — what was its Rf?
0.7

# lookup: Rf of CC(C)C[C@H](NC(=O)[C@@H]1CCC(=O)N1)C(=O)N[C@H](C(=O)N[C@@H](CO)C(=O)N[C@@H](Cc1ccc(O)cc1)C(=O)N[C@H](C)C(=O)N[C@@H](CC(C)C)C(=O)N[C@@H](CCCNC(=N)N)C(=O)N1CCC[C@H]1C(=O)NCC(N)=O)C(C)C
0.71

New cases:
Any idea what Rf was measured for CC(C)C[C@H](NC(=O)[C@@H](NC(=O)[C@@H]1CCC(=O)N1)C(C)C)C(=O)N[C@@H](CO)C(=O)N[C@@H](Cc1ccc(O)cc1)C(=O)N[C@H](C)C(=O)N[C@@H](CC(C)C)C(=O)N[C@@H](CCCNC(=N)N)C(=O)N1CCC[C@H]1C(=O)NCC(N)=O ?
0.71

###

biological target: Gonadotropin-releasing hormone receptor (Rattus norvegicus) (UniProt P30969); assay: Antagonist activity at LH-RH receptor in rat pituitary gland assessed as inhibition of LH-RH-induced luteinizing hormone release by measuring change in LH level in medium at 10000 ng/ml
Sequence (P30969 whole entry, looked up): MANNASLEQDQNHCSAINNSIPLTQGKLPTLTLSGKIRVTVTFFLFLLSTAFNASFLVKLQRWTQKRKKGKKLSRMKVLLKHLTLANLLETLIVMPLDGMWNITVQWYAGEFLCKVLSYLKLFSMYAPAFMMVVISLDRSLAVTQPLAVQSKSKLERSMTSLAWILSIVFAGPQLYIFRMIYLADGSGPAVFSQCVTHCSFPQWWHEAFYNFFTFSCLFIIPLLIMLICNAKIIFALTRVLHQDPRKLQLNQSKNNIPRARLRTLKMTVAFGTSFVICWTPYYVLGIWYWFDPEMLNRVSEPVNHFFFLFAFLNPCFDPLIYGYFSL
Property Name: Activity (ng/mL)
Kindly answer with a numeric value in ng/mL, unit omitted.

Record request: Activity value, item CC(C)C[C@H](NC(=O)[C@@H]1CCC(=O)N1)C(=O)N[C@@H](CC(C)C)C(=O)N[C@@H](CO)C(=O)N[C@@H](Cc1ccc(O)cc1)C(=O)N[C@H](C)C(=O)N[C@@H](CC(C)C)C(=O)N[C@@H](CCCNC(=N)N)C(=O)N1CCC[C@H]1C(=O)NCC(N)=O
3

Which value of Activity has been reported for CC(C)C[C@H](NC(=O)[C@@H](C)NC(=O)[C@H](Cc1ccc(O)cc1)NC(=O)[C@H](CO)NC(=O)[C@@H](NC(=O)[C@@H](NC(=O)[C@@H]1CCC(=O)N1)C(C)C)C(C)C)C(=O)N[C@@H](CCCNC(=N)N)C(=O)N1CCC[C@H]1C(=O)NCC(N)=O in the records?
313

Name the reported Activity value associated with the compound CC(C)C[C@H](NC(=O)[C@@H](NC(=O)[C@@H]1CCC(=O)N1)C(C)C)C(=O)N[C@@H](CO)C(=O)N[C@@H](Cc1ccc(O)cc1)C(=O)N[C@H](C)C(=O)N[C@@H](CC(C)C)C(=O)N[C@@H](CCCNC(=N)N)C(=O)N1CCC[C@H]1C(=O)NCC(N)=O
28

Field request: Activity | item: CC(C)C[C@H](NC(=O)[C@@H]1CCC(=O)N1)C(=O)N[C@H](C(=O)N[C@@H](CO)C(=O)N[C@@H](Cc1ccc(O)cc1)C(=O)N[C@H](C)C(=O)N[C@@H](CC(C)C)C(=O)N[C@@H](CCCNC(=N)N)C(=O)N1CCC[C@H]1C(=O)NCC(N)=O)C(C)C
150

###

target: Gonadotropin-releasing hormone receptor (Rattus norvegicus); assay: Antagonist activity at LH-RH receptor in rat pituitary gland assessed as inhibition of LH-RH-induced FSH release by measuring change in FSH level in medium at 10000 ng/ml
# Activity per record follows
Give just the number in ng/mL; leave the unit off.

Example entries begin here.
Give the measured Activity of CC(C)C[C@H](NC(=O)[C@@H](C)NC(=O)[C@H](Cc1ccc(O)cc1)NC(=O)[C@H](CO)NC(=O)[C@@H](NC(=O)[C@@H](NC(=O)[C@@H]1CCC(=O)N1)C(C)C)C(C)C)C(=O)N[C@@H](CCCNC(=N)N)C(=O)N1CCC[C@H]1C(=O)NCC(N)=O .
4810

Entry CC(C)C[C@H](NC(=O)[C@@H]1CCC(=O)N1)C(=O)N[C@H](C(=O)N[C@@H](CO)C(=O)N[C@@H](Cc1ccc(O)cc1)C(=O)N[C@H](C)C(=O)N[C@@H](CC(C)C)C(=O)N[C@@H](CCCNC(=N)N)C(=O)N1CCC[C@H]1C(=O)NCC(N)=O)C(C)C has what Activity?
3770

Entry under review: CC(C)C[C@H](NC(=O)[C@@H](NC(=O)[C@@H]1CCC(=O)N1)C(C)C)C(=O)N[C@@H](CO)C(=O)N[C@@H](Cc1ccc(O)cc1)C(=O)N[C@H](C)C(=O)N[C@@H](CC(C)C)C(=O)N[C@@H](CCCNC(=N)N)C(=O)N1CCC[C@H]1C(=O)NCC(N)=O . Reported Activity?
1260

Consider now this further compound.
I am curious: what Activity value has been reported for CC(C)C[C@H](NC(=O)[C@@H]1CCC(=O)N1)C(=O)N[C@@H](CC(C)C)C(=O)N[C@@H](CO)C(=O)N[C@@H](Cc1ccc(O)cc1)C(=O)N[C@H](C)C(=O)N[C@@H](CC(C)C)C(=O)N[C@@H](CCCNC(=N)N)C(=O)N1CCC[C@H]1C(=O)NCC(N)=O ?
2700
